system: A549; experiment: Antiproliferative activity against human A549 cells assessed as reduction in cell viability by MTT assay; assay type: functional, cell-based
assay_metric: pIC50
Remember, pIC50 is on a log scale: it is -log10 of the molar concentration.

Answered examples (3):
COc1cccc(/C=N/Nc2ncc3c(n2)n(C2CCCC2)c(=O)c(=O)n3C)c1 = 4.56
Cn1c(=O)c(=O)n(C2CCCC2)c2nc(N/N=C/c3ccc(OC(F)(F)F)cc3)ncc21 = 4.89
Cn1c(=O)c(=O)n(C2CCCC2)c2nc(N/N=C/c3ccc(Cl)cc3)ncc21 = 5.16

Would you mind telling me what pIC50 value was observed for `Cn1c(=O)c(=O)n(C2CCCC2)c2nc(N/N=C/c3cc([N+](=O)[O-])ccc3Cl)ncc21` ?
5.06

Would you mind telling me what pIC50 value was observed for `Cc1ccc(/C=N/Nc2ncc3c(n2)n(C2CCCC2)c(=O)c(=O)n3C)cc1C` ?
4.52

Would you mind telling me what pIC50 value was observed for `Cn1c(=O)c(=O)n(C2CCCC2)c2nc(N/N=C/c3ccccc3Cl)ncc21` ?
5.01

Would you mind telling me what pIC50 value was observed for `Cn1c(=O)c(=O)n(C2CCCC2)c2nc(N/N=C/c3ccc(O)c(F)c3)ncc21` ?
4.01

Would you mind telling me what pIC50 value was observed for `Cn1c(=O)c(=O)n(C2CCCC2)c2nc(N/N=C/c3cccc(Cl)c3Cl)ncc21` ?
4.41

Would you mind telling me what pIC50 value was observed for `Cc1cccc(/C=N/Nc2ncc3c(n2)n(C2CCCC2)c(=O)c(=O)n3C)c1` ?
4.46

Would you mind telling me what pIC50 value was observed for `Cn1c(=O)c(=O)n(C2CCCC2)c2nc(N/N=C/c3ccc(F)cc3Cl)ncc21` ?
4.96

Would you mind telling me what pIC50 value was observed for `Cn1c(=O)c(=O)n(C2CCCC2)c2nc(N/N=C/c3ccc(F)cc3F)ncc21` ?
4.74
